The reported measurements were obtained from ChEMBL document CHEMBL1141067.

- EXPERIMENT: Plasma clearance (2 mg/kg, i.v.) was determined in Sprague-Dawley rats
- Type: ADME, organism-based
- EXPERIMENTAL SETUP: rat, iv, read-out: Clp

SMILES STRUCTURE: CCOc1cc(Oc2cccnc2)cnc1Nc1cccc(C)n1
clearance: 52 mL/min/kg
//
SMILES STRUCTURE: CCOc1cccnc1Nc1cccc(C)n1
clearance: 16 mL/min/kg
//
SMILES STRUCTURE: CCOc1cc(-c2cncnc2)cnc1Nc1cccc(C)n1
clearance: 79 mL/min/kg
//
SMILES STRUCTURE: CCOc1cc(-c2cccnc2)cnc1Nc1cccc(C)n1
clearance: 50 mL/min/kg
//
SMILES STRUCTURE: CCOc1cc(C#N)cnc1Nc1cccc(C)n1
clearance: 90 mL/min/kg
//
SMILES STRUCTURE: CCOc1nccnc1Nc1cccc(C)n1
clearance: 102 mL/min/kg
//
SMILES STRUCTURE: CCCc1cccnc1Nc1cccc(C)n1
clearance: 320 mL/min/kg
//
SMILES STRUCTURE: CCOc1cccnc1Nc1ccccn1
clearance: 78 mL/min/kg
//
SMILES STRUCTURE: CCOc1cc(-c2cnccc2C)cnc1Nc1cccc(C)n1
clearance: 105 mL/min/kg
//
SMILES STRUCTURE: CCOc1cc(-c2ccccn2)cnc1Nc1cccc(C)n1
clearance: 124 mL/min/kg
//
SMILES STRUCTURE: CCOc1cc(-c2cccc(F)c2)cnc1Nc1cccc(C)n1
clearance: 93 mL/min/kg

---

- EXPERIMENTAL TARGET: Metabotropic glutamate receptor 5 (Homo sapiens)
- Sequence (P41594 whole entry): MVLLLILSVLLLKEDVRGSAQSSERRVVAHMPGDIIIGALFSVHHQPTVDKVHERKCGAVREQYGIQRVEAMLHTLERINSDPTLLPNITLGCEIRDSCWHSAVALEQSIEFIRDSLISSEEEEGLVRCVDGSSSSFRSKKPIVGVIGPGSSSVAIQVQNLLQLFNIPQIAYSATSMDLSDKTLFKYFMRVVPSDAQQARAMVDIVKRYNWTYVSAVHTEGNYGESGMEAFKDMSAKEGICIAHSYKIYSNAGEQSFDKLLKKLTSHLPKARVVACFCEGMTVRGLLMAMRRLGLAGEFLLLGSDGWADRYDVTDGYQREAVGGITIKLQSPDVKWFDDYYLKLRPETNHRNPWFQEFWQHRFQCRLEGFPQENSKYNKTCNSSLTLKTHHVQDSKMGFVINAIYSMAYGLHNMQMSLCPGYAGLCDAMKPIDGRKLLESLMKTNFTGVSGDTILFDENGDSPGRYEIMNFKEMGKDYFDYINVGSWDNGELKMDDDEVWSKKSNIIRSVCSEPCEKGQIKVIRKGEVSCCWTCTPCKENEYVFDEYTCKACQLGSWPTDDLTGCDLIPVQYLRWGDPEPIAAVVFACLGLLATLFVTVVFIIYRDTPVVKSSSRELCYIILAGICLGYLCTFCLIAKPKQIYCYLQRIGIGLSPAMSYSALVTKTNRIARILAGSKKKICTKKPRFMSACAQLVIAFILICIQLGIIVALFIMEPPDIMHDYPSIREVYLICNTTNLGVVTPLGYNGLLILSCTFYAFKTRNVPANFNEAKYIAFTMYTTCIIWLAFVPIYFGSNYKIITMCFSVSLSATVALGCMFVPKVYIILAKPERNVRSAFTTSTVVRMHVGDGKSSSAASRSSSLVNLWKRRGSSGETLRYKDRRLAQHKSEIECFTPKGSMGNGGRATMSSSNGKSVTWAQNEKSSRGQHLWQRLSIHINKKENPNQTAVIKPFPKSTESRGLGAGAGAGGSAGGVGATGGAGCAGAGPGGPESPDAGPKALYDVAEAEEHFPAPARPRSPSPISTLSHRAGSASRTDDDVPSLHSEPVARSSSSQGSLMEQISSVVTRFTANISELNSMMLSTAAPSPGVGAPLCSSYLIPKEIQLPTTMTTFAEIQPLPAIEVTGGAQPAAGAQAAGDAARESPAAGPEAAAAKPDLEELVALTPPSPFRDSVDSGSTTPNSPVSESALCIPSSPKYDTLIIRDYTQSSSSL
- EXPERIMENT: In vitro potency against calcium flux in Ltk cells expressing human recombinant metabotropic glutamate receptor 5 using fluorescence detection
- Type: cell-based
pIC50: −log10 of the molar value.
pIC50 overview

SMILES STRUCTURE: CCOc1cc(C)cnc1Nc1cccc(C)n1
EXPERIMENTAL TARGET: Metabotropic glutamate receptor 5 (Homo sapiens)
pIC50: 6.92

SMILES STRUCTURE: CCOc1cc(-c2cccc(F)c2)cnc1Nc1cccc(C)n1
EXPERIMENTAL TARGET: Metabotropic glutamate receptor 5 (Homo sapiens)
pIC50: 6.90

SMILES STRUCTURE: CCOc1cc(-c2cccnc2C#N)cnc1Nc1cccc(C)n1
EXPERIMENTAL TARGET: Metabotropic glutamate receptor 5 (Homo sapiens)
pIC50: 7.10

SMILES STRUCTURE: CCOc1nccnc1Nc1cccc(C)n1
EXPERIMENTAL TARGET: Metabotropic glutamate receptor 5 (Homo sapiens)
pIC50: 6.30

SMILES STRUCTURE: CCOc1cccnc1Nc1cccc(C)n1
EXPERIMENTAL TARGET: Metabotropic glutamate receptor 5 (Homo sapiens)
pIC50: 7.40

SMILES STRUCTURE: CCOc1cccnc1Nc1cccc(OC)n1
EXPERIMENTAL TARGET: Metabotropic glutamate receptor 5 (Homo sapiens)
pIC50: 6.25

SMILES STRUCTURE: CCOc1cc(-c2ccccn2)cnc1Nc1cccc(C)n1
EXPERIMENTAL TARGET: Metabotropic glutamate receptor 5 (Homo sapiens)
pIC50: 6.71

SMILES STRUCTURE: CCOc1cc(Cl)cnc1Nc1cccc(C)n1
EXPERIMENTAL TARGET: Metabotropic glutamate receptor 5 (Homo sapiens)
pIC50: 7.77

SMILES STRUCTURE: CCOc1cc(-c2cncnc2)cnc1Nc1cccc(C)n1
EXPERIMENTAL TARGET: Metabotropic glutamate receptor 5 (Homo sapiens)
pIC50: 7.44

SMILES STRUCTURE: CCOc1cc(C#N)cnc1Nc1cccc(C)n1
EXPERIMENTAL TARGET: Metabotropic glutamate receptor 5 (Homo sapiens)
pIC50: 7.34

SMILES STRUCTURE: CCNc1cccnc1Nc1cccc(C)n1
EXPERIMENTAL TARGET: Metabotropic glutamate receptor 5 (Homo sapiens)
pIC50: 5.52

SMILES STRUCTURE: CCOc1cc(-c2ccccc2)cnc1Nc1cccc(C)n1
EXPERIMENTAL TARGET: Metabotropic glutamate receptor 5 (Homo sapiens)
pIC50: 6.57

SMILES STRUCTURE: CCOc1cc(-c2cnccc2C)cnc1Nc1cccc(C)n1
EXPERIMENTAL TARGET: Metabotropic glutamate receptor 5 (Homo sapiens)
pIC50: 7.35

SMILES STRUCTURE: CCOc1cccnc1Nc1ccccn1
EXPERIMENTAL TARGET: Metabotropic glutamate receptor 5 (Homo sapiens)
pIC50: 6.86

SMILES STRUCTURE: Cc1cccc(Nc2ncccc2OC(C)C)n1
EXPERIMENTAL TARGET: Metabotropic glutamate receptor 5 (Homo sapiens)
pIC50: 6.00

SMILES STRUCTURE: CCCc1cccnc1Nc1cccc(C)n1
EXPERIMENTAL TARGET: Metabotropic glutamate receptor 5 (Homo sapiens)
pIC50: 6.40

SMILES STRUCTURE: CCOc1cccnc1Nc1cccc(C(F)(F)F)n1
EXPERIMENTAL TARGET: Metabotropic glutamate receptor 5 (Homo sapiens)
pIC50: 5.72

SMILES STRUCTURE: CCCOc1cccnc1Nc1cccc(C)n1
EXPERIMENTAL TARGET: Metabotropic glutamate receptor 5 (Homo sapiens)
pIC50: 5.80

SMILES STRUCTURE: CCOc1cc(-c2cccnc2)cnc1Nc1cccc(C)n1
EXPERIMENTAL TARGET: Metabotropic glutamate receptor 5 (Homo sapiens)
pIC50: 7.92

SMILES STRUCTURE: CCOc1cc(Br)cnc1Nc1cccc(C)n1
EXPERIMENTAL TARGET: Metabotropic glutamate receptor 5 (Homo sapiens)
pIC50: 7.33

SMILES STRUCTURE: CCOc1c(C)ccnc1Nc1cccc(C)n1
EXPERIMENTAL TARGET: Metabotropic glutamate receptor 5 (Homo sapiens)
pIC50: 5.57

SMILES STRUCTURE: CSc1cccnc1Nc1cccc(C)n1
EXPERIMENTAL TARGET: Metabotropic glutamate receptor 5 (Homo sapiens)
pIC50: 6.10

SMILES STRUCTURE: COc1cccnc1Nc1cccc(C)n1
EXPERIMENTAL TARGET: Metabotropic glutamate receptor 5 (Homo sapiens)
pIC50: 6.34

SMILES STRUCTURE: Cc1cccc(Nc2ncccc2OCc2ccccc2)n1
EXPERIMENTAL TARGET: Metabotropic glutamate receptor 5 (Homo sapiens)
pIC50: 6.06

SMILES STRUCTURE: CCOc1cc(-c2ccccc2C#N)cnc1Nc1cccc(C)n1
EXPERIMENTAL TARGET: Metabotropic glutamate receptor 5 (Homo sapiens)
pIC50: 7.43

SMILES STRUCTURE: CCOc1cccnc1Nc1cccc(C(=O)OC)n1
EXPERIMENTAL TARGET: Metabotropic glutamate receptor 5 (Homo sapiens)
pIC50: 5.21

SMILES STRUCTURE: CCOc1cc(-c2ccc(C)cc2)cnc1Nc1cccc(C)n1
EXPERIMENTAL TARGET: Metabotropic glutamate receptor 5 (Homo sapiens)
pIC50: 6.29

SMILES STRUCTURE: CCOc1cc(-c2ccsn2)cnc1Nc1cccc(C)n1
EXPERIMENTAL TARGET: Metabotropic glutamate receptor 5 (Homo sapiens)
pIC50: 6.61

SMILES STRUCTURE: CCOc1cc(Oc2cccnc2)cnc1Nc1cccc(C)n1
EXPERIMENTAL TARGET: Metabotropic glutamate receptor 5 (Homo sapiens)
pIC50: 7.74
